- Protocol: Half life in ICR (CD-1) mouse at 20 mg/kg, po administered as single dose by LC-MS analysis
- Assay type: ADME, organism-based
- Assay context: in vivo

| Structure smiles string | half-life, h |
| --- | --- |
| CCCN1C(=N)[C@@H]([C@H](C[C@@H]2CCCNC2=O)NC(=O)[C@H](Cc2ccc(F)cc2)NC(=O)c2cc(C)on2)OC1=O | 1 |

---

- Protocol: Half life in mouse liver microsomes at 1 mg/ml in presence of NADPH regenerating system by HPLC analysis
- Type: ADME, microsome

| Structure smiles string | half-life [min] |
| --- | --- |
| Cc1cc(C(=O)N[C@@H](Cc2ccc(F)cc2)C(=O)N[C@@H](C[C@@H]2CCCNC2=O)[C@@H](O)C#N)no1 | 6 |
| CCCN1C(=N)[C@@H]([C@H](C[C@@H]2CCCNC2=O)NC(=O)[C@H](Cc2ccc(F)cc2)NC(=O)c2cc(C)on2)OC1=O | 35 |
| Cc1cc(C(=O)N[C@@H](Cc2ccc(F)cc2)C(=O)N[C@@H](C[C@@H]2CCCNC2=O)[C@H]2OC(=O)N(C(C)C)C2=N)no1 | 74 |

---

- Protocol: Tmax in ICR (CD-1) mouse at 20 mg/kg, iv administered as single dose by LC-MS analysis
- Format: ADME, organism-based
- Assay context: in vivo

| Structure smiles string | Tmax, min |
| --- | --- |
| CCCN1C(=N)[C@@H]([C@H](C[C@@H]2CCCNC2=O)NC(=O)[C@H](Cc2ccc(F)cc2)NC(=O)c2cc(C)on2)OC1=O | 5 |

---

- Tested on: Mus musculus
- Protocol: Cmax in ICR (CD-1) mouse at 20 mg/kg, iv administered as single dose by LC-MS analysis
- Assay type: ADME, organism-based
- Set-up: dose 20 mg/kg, route intravenous
- Assay context: in vivo

| Structure smiles string | Cmax |
| --- | --- |
| CCCN1C(=N)[C@@H]([C@H](C[C@@H]2CCCNC2=O)NC(=O)[C@H](Cc2ccc(F)cc2)NC(=O)c2cc(C)on2)OC1=O | 8200 ng/mL |

---

- Protocol: Half life in human plasma by HPLC analysis
- Format: ADME, cell-free
Observation type: half-life (min)

| Structure smiles string | Observation type | Qualifier operator | Value |
| --- | --- | --- | --- |
| Cc1cc(C(=O)N[C@@H](Cc2ccc(F)cc2)C(=O)N[C@@H](C[C@@H]2CCCNC2=O)[C@H]2OC(=O)N(C(C)C)C2=N)no1 | half-life | > | 120 |
| Cc1cc(C(=O)N[C@@H](Cc2ccc(F)cc2)C(=O)N[C@@H](C[C@@H]2CCCNC2=O)[C@@H](O)C#N)no1 | half-life | = | 11 |
| CC(=O)O[C@@H](C#N)[C@H](C[C@@H]1CCCNC1=O)NC(=O)[C@H](Cc1ccc(F)cc1)NC(=O)c1cc(C)on1 | half-life | = | 50 |
| CCCN1C(=N)[C@@H]([C@H](C[C@@H]2CCCNC2=O)NC(=O)[C@H](Cc2ccc(F)cc2)NC(=O)c2cc(C)on2)OC1=O | half-life | > | 120 |

---

- Assay target: UniProt:A0A1D8D5K2
- Sequence (A0A1D8D5K2 whole entry): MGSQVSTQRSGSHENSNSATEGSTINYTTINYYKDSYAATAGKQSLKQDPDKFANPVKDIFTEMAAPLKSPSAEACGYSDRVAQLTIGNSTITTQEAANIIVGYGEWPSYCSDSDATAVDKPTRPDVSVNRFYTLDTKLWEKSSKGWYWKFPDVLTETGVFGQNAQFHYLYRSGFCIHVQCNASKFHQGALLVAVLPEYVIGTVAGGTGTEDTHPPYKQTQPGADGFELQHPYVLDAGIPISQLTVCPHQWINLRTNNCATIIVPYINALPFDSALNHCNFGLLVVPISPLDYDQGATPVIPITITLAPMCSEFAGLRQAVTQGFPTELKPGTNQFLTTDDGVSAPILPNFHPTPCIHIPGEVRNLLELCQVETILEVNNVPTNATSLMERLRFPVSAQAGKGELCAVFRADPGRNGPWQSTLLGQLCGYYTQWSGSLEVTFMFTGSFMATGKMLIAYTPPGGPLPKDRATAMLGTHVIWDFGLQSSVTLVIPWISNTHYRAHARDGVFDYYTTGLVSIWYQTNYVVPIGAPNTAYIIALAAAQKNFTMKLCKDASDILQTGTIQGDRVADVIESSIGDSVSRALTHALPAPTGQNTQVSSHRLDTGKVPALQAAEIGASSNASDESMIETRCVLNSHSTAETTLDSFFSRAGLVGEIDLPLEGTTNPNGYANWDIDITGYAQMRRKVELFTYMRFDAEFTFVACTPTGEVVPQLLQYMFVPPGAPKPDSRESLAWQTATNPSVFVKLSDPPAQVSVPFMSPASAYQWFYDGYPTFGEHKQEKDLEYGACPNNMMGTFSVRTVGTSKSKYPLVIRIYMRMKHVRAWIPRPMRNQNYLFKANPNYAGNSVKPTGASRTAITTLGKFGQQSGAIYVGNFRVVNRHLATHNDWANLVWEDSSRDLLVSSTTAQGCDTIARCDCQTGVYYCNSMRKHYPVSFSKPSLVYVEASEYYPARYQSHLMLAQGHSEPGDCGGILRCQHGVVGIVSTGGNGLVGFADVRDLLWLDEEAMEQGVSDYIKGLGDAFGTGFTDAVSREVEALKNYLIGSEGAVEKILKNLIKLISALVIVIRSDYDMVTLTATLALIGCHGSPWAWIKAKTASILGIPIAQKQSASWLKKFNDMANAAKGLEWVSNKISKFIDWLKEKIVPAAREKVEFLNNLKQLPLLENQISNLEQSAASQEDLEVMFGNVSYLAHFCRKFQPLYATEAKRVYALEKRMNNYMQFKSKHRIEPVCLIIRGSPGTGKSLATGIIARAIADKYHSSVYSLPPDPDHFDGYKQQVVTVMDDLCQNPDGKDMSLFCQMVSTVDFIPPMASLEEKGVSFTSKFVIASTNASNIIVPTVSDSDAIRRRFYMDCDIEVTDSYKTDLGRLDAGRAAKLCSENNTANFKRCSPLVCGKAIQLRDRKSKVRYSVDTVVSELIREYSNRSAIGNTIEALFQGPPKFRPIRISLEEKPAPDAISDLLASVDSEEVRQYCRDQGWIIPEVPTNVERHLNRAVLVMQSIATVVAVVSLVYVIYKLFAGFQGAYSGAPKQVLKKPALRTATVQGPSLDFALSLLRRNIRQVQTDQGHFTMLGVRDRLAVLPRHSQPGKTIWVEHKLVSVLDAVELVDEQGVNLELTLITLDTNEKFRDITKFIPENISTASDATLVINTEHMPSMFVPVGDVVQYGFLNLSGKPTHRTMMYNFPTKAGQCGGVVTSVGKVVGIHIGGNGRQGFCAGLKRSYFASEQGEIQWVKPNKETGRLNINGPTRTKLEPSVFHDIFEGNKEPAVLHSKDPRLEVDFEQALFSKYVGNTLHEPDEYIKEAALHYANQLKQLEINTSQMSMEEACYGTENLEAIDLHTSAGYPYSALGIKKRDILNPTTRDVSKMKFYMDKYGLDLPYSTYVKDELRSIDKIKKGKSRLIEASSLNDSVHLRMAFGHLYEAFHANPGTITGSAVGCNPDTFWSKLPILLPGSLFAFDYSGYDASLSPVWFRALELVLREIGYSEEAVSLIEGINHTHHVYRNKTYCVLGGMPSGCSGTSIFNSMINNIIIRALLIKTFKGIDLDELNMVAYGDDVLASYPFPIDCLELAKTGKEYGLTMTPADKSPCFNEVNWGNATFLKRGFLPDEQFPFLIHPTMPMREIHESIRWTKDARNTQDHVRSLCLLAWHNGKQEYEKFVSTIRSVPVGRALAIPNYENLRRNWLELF
Lab note: anything with Ki below 0.08 µM is marked 1; values at 0.08 µM or higher are marked 0.

| Structure smiles string | Label value |
| --- | --- |
| Cc1cc(C(=O)N[C@@H](Cc2ccc(F)cc2)C(=O)N[C@@H](C[C@@H]2CCCNC2=O)[C@H]2OC(=O)N(C)C2=N)no1 | 0 |
| CCCN1C(=N)[C@@H]([C@H](C[C@@H]2CCCNC2=O)NC(=O)[C@H](Cc2ccc(F)cc2)NC(=O)c2cc(C)on2)OC1=O | 0 |
| CCCN1C(=N)[C@H]([C@H](C[C@@H]2CCCNC2=O)NC(=O)[C@H](Cc2ccc(F)cc2)NC(=O)c2cc(C)on2)OC1=O | 0 |
| CCCNC(=O)O[C@@H](C#N)[C@H](C[C@@H]1CCCNC1=O)NC(=O)[C@H](Cc1ccc(F)cc1)NC(=O)c1cc(C)on1 | 0 |
| Cc1cc(C(=O)N[C@@H](Cc2ccc(F)cc2)C(=O)N[C@@H](C[C@@H]2CCCNC2=O)[C@@H](O)C#N)no1 | 1 |
| CNC(=O)O[C@H](C#N)[C@H](C[C@@H]1CCCNC1=O)NC(=O)[C@H](Cc1ccc(F)cc1)NC(=O)c1cc(C)on1 | 1 |
| Cc1cc(C(=O)N[C@@H](Cc2ccc(F)cc2)C(=O)N[C@@H](C[C@@H]2CCCNC2=O)[C@H](C#N)OC(=O)NC(C)C)no1 | 1 |
| CNC(=O)O[C@@H](C#N)[C@H](C[C@@H]1CCCNC1=O)NC(=O)[C@H](Cc1ccc(F)cc1)NC(=O)c1cc(C)on1 | 1 |
| CCN1C(=N)[C@@H]([C@H](C[C@@H]2CCCNC2=O)NC(=O)[C@H](Cc2ccc(F)cc2)NC(=O)c2cc(C)on2)OC1=O | 0 |
| CC(=O)O[C@@H](C#N)[C@H](C[C@@H]1CCCNC1=O)NC(=O)[C@H](Cc1ccc(F)cc1)NC(=O)c1cc(C)on1 | 1 |
| Cc1cc(C(=O)N[C@@H](Cc2ccc(F)cc2)C(=O)N[C@@H](C[C@@H]2CCCNC2=O)[C@H]2OC(=O)N(C3CC3)C2=N)no1 | 0 |
| Cc1cc(C(=O)N[C@@H](Cc2ccc(F)cc2)C(=O)N[C@@H](C[C@@H]2CCCNC2=O)[C@H](C#N)OC(=O)C2CC2)no1 | 0 |
| Cc1cc(C(=O)N[C@@H](Cc2ccc(F)cc2)C(=O)N[C@@H](C[C@@H]2CCCNC2=O)[C@H](C#N)OC(=O)NC2CC2)no1 | 0 |
| Cc1cc(C(=O)N[C@@H](Cc2ccc(F)cc2)C(=O)N[C@@H](C[C@@H]2CCCNC2=O)[C@H](C#N)OC(=O)C(C)C)no1 | 0 |
